Data provenance is patent US20040219201A1.

# Tested on: M-109S (doxorubicin-sensitive human breast carcinoma)
# measurement.protocol: Cytotoxicity assay (methylene blue); tempamine alone or doxorubicin plus tempamine
# Format: cell-based
# measurement.conditions: Homo sapiens, read-out: IC50 (cytotoxicity)
measured.metric: IC50

Exercise: Provide the documented IC50 with M-109S (doxorubicin-sensitive human breast carcinoma) as the system for CC1(C)CC(N)CC(C)(C)N1[O] [tempamine]
Solution: ~700 µM

====

# measurement.protocol: Pharmacokinetics and biodistribution in C26 tumor-bearing BALB/c mice
# Assay type: in vivo
# measurement.conditions: female, BALB/c, mouse, plasma, iv; tumor-bearing mice, 18 mg/kg i.v.; read-out: CL (ml/h), clearance rate (converted)
# Experimental: The pharmacokinetics and biodistribution of liposome-entrapped tempamine and of free tempamine were determined in healthy and in tumor-bearing mice. […] The liposome formulation included a lipid label to allow analysis of the distribution of the liposome lipids. The tempamine levels in blood and tissues were measured using the EPR technique set forth in the Methods section. […]
measured.metric: clearance (mL/h)
Kindly answer with a numeric value in mL/h, unit omitted.

Exercise: Endpoint output: clearance of CC1(C)CC(N)CC(C)(C)N1[O] . Value?
Solution: 3.2

====

# System: M-109S (doxorubicin-sensitive human breast carcinoma)
# measurement.protocol: Cytotoxicity assay (methylene blue); tempamine alone or doxorubicin plus tempamine
# Assay type: cell-based
# measurement.conditions: Homo sapiens, read-out: IC50 of Doxorubicin (nM) in the presence of 200 μM tempamine; M-109S
measured.metric: IC50 (nM)
Kindly answer with a numeric value in nM, unit omitted.

Exercise: Endpoint output: IC50 of COc1cccc2c1C(=O)c1c(O)c3c(c(O)c1C2=O)C[C@@](O)(C(=O)CO)C[C@@H]3O[C@H]1C[C@H](N)[C@H](O)[C@H](C)O1 [doxorubicin] . Value?
Solution: 18

====

# Tested on: M-109S (doxorubicin-sensitive human breast carcinoma)
# measurement.protocol: Cytotoxicity assay (methylene blue); tempamine alone or doxorubicin plus tempamine
# Type: cell-based
# measurement.conditions: Homo sapiens; M-109S; read-out: IC50 of Doxorubicin (nM) in the presence of 0 μM tempamine
# Description: As described in Example 1, the cytotoxicity of tempamine was determined on three cell lines, MCF-7 (human breast adenocarcinoma), M-109S (doxorubicin-sensitive human breast carcinoma), and M-109R (doxorubicin-resistant human breast carcinoma). The effect of free tempamine on cell proliferation was determined by a methylene blue assay as described in Example 1B. In yet another aspect, the invention contemplates administration of tempamine in combination with chemotherapeutic agent. […]
measured.metric: IC50
Lab note: write values as number then unit, every time.

Exercise: Endpoint output: IC50 of COc1cccc2c1C(=O)c1c(O)c3c(c(O)c1C2=O)C[C@@](O)(C(=O)CO)C[C@@H]3O[C@H]1C[C@H](N)[C@H](O)[C@H](C)O1 . Value?
Solution: 60 nM
